The origin of these recorded values is BigSolDB 2.1.

- experimental-context: in THF, 308.2 K
measurement-name: solubility (mole fraction)
The answer should be a number; do not append a unit.

IN: Endpoint output: solubility (mole fraction) of `C=C(C)[C@@H]1CC[C@]2(C(=O)O)CC[C@]3(C)[C@H](CC[C@@H]4[C@@]5(C)CC[C@H](O)C(C)(C)[C@@H]5CC[C@]43C)[C@@H]12` . Value?
OUT: 0.0276

###

- experimental-context: in methanol, 298.2 K
measurement-name: solubility (mole fraction)

IN: Endpoint output: solubility (mole fraction) of `C=C(C)[C@@H]1CC[C@]2(C(=O)O)CC[C@]3(C)[C@H](CC[C@@H]4[C@@]5(C)CC[C@H](O)C(C)(C)[C@@H]5CC[C@]43C)[C@@H]12` . Value?
OUT: 0.000339
